- STUDY SYSTEM: IRAK4 (Homo sapiens)
- Sequence (Q9NWZ3 1-460): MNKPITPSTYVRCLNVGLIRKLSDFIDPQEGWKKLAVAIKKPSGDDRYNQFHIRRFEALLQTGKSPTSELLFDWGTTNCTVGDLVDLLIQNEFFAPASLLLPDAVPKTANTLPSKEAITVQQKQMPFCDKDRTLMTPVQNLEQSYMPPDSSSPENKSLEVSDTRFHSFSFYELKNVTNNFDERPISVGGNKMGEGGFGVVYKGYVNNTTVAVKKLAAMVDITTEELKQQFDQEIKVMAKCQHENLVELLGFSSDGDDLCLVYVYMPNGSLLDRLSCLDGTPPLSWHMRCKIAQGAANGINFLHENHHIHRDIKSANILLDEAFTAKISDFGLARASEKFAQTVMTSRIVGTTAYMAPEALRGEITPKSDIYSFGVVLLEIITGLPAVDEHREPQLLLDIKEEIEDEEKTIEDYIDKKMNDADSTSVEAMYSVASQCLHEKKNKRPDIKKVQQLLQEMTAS
- METHOD NOTES: WB detection of proteolysis (Western Blot, THP-1 cells)
- Type: cell-based
- STUDY CONDITIONS: Western Blot, THP-1 cells, 24 h; read-out: Dmax
Counter-ions that a name gives are not always drawn.
The following compounds are listed with their measured Dmax values.

Use these answered entries as a reference point.
COMPOUND	VALUE OBSERVED
Cn1c(=O)n(C2CCC(=O)NC2=O)c2cccc(N3CCN(C[C@H]4CC[C@H](n5cc(-n6cc(-c7cnn8ccc(N9CCOCC9)nc78)nn6)c(C(F)F)n5)CC4)CC3)c21 (some centres unmarked)	< 60%
Cn1c(=O)n(C2CCC(=O)NC2=O)c2cccc(N3CCC(N4CCN(C[C@H]5CC[C@H](n6cc(-n7cc(-c8cnn9ccc(N%10CCC(O)CC%10)nc89)nn7)c(C(F)F)n6)CC5)CC4)CC3)c21 (some centres unmarked)	> 70%
C[C@H]1CN(c2ccn3ncc(-c4cn(-c5cn([C@H]6CC[C@H](CN7CCC8(CC7)CN(c7cccc9c7n(C)c(=O)n9C7CCC(=O)NC7=O)C8)CC6)nc5C(F)F)nn4)c3n2)CCO1 (some centres unmarked)	> 70%
Cn1c(=O)n(C2CCC(=O)NC2=O)c2cccc(N3CCC(N4CCN(C[C@H]5CC[C@H](n6cc(-n7cc(-c8cnn9ccc(N%10CCNCC%10)nc89)nn7)c(C(F)F)n6)CC5)CC4)CC3)c21 (some centres unmarked) [Example 127, dihydrochloride]	> 70%

// next entry
**Query** Entry C[C@@H]1CN(C[C@H]2CC[C@H](n3cc(-n4cc(-c5cnn6ccc(N7CCC[C@H](O)C7)nc56)nn4)c(C(F)F)n3)CC2)CCN1C1CCN(c2cccc3c2n(C)c(=O)n3C2CCC(=O)NC2=O)CC1 (some centres unmarked) needs its Dmax filled in; supply it.
**Result** > 70%

###

- STUDY SYSTEM: IRAK4 (Homo sapiens, UniProt Q9NWZ3)
- METHOD NOTES: Hibit fluorescence detection of proteolysis (IRAK4-HiBiT in HEK293T cells)
- Type: cell-based
- Set-up: host or cells: HEK293T (ATCC)
- STUDY CONDITIONS: HEK-293T
Some molecules, each annotated with its measured Dmax.

# example entries with known answers
MOLECULE	VALUE OBSERVED
C[C@H]1CN(c2ccn3ncc(-c4cn(-c5cn([C@H]6CC[C@H](CN7CCC8(CC7)CN(c7cccc9c7n(C)c(=O)n9C7CCC(=O)NC7=O)C8)CC6)nc5C(F)F)nn4)c3n2)CCO1 (stereo partly shown)	> 80%
CN(C[C@H]1CC[C@H](n2cc(-n3cc(-c4cnn5ccc(N6CCOCC6)nc45)nn3)c(C(F)F)n2)CC1)C1CCN(Cc2cccc3c2n(C)c(=O)n3C2CCC(=O)NC2=O)CC1 (stereo partly shown)	< 60%
Cn1c(=O)n(C2CCC(=O)NC2=O)c2cccc(N3CCC4(CCN(C[C@H]5CC[C@H](n6cc(-n7cc(-c8cnn9ccc(N%10CCC[C@H](N)C%10)nc89)nn7)c(C(F)F)n6)CC5)C4)CC3)c21 (stereo partly shown)	> 80%

**Query** Let me know recorded Dmax for Cn1c(=O)n(C2CCC(=O)NC2=O)c2cccc(N3CCC(N4CCN(C[C@H]5CC[C@H](n6cc(-n7cc(-c8cnn9cc(C#N)cnc89)nn7)c(C(F)F)n6)CC5)CC4)CC3)c21 (stereo partly shown) , thanks.
**Result** 60 to 70%

**Query** State its Dmax: Cn1c(=O)n(C2CCC(=O)NC2=O)c2cccc(N3CCC4(CCN(C[C@H]5CC[C@H](n6cc(-n7cc(-c8cnn9ccc(N%10CCC(C)(O)CC%10)nc89)nn7)c(C(F)F)n6)CC5)CC4)C3)c21 (stereo partly shown)
**Result** > 80%

**Query** Provide one value: measured Dmax of CN1CCN(c2ccn3ncc(-c4cn(-c5cn([C@H]6CC[C@H](CN7CCN(C8CCN(c9cccc%10c9n(C)c(=O)n%10C9CCC(=O)NC9=O)CC8)CC7)CC6)nc5C(F)F)nn4)c3n2)CC1 (stereo partly shown)
**Result** 70 to 80%

**Query** Give me measured Dmax, please, for this molecule: Cn1c(=O)n(C2CCC(=O)NC2=O)c2cccc(N3CCC4(CCCN(C[C@H]5CC[C@H](n6cc(-n7cc(-c8cnn9ccc(N%10CCOCC%10)nc89)nn7)c(C(F)F)n6)CC5)C4)CC3)c21 (stereo partly shown)
**Result** 70 to 80%

**Query** Provide Dmax value for the following molecule: Cn1c(=O)n(C2CCC(=O)NC2=O)c2cccc(CN3CCC4(CC3)CCN(C[C@H]3CC[C@H](n5cc(-n6cc(-c7cnn8ccc(N9CCOCC9)nc78)nn6)c(C(F)F)n5)CC3)CC4)c21 (stereo partly shown)
**Result** < 60%

**Query** For the molecule Cn1c(=O)n(C2CCC(=O)NC2=O)c2cccc(N3CC(N4CCN(C[C@H]5CC[C@H](n6cc(-n7cc(-c8ccc9cc(C(N)=O)cnn89)nn7)c(C(F)F)n6)CC5)CC4)C3)c21 (stereo partly shown) , give its measured Dmax value.
**Result** 60 to 70%

**Query** Query Dmax for Cn1c(=O)n(C2CCC(=O)NC2=O)c2cccc(N3CCC4(CCN(C[C@H]5CC[C@H](n6cc(-n7cc(-c8cnn9ccc(N%10CCC[C@H](O)C%10)nc89)nn7)c(C(F)F)n6)CC5)CC4)CC3)c21 (stereo partly shown)
**Result** > 80%
